Hey, just so you know, these numbers are from patent US20100248359A1.

Quick reference for Inhibition of the binding of indicated biotin-Mab to sGPC3 core (%) among some binders
# target_desc: T1, soluble form of GPC3 core protein (human, UniProt P51654 25-563)
# T1 construct: not shown: His tag added to the C-terminus
# assay_procedure: competitive ELISA on coated soluble GPC3 core protein; labelled competitor biotin-M11F1;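 further: Biotin-labelled antibody added as 10 µL at 10 µg/mL for 1 h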
Respond numerically; units are % and should not be typed.

Which value of Inhibition of the binding of indicated biotin-Mab to sGPC3 core (%) has been reported for M1E7 (antibody, human IgG1, kappa, V domains shown, Mouse monoclonal from hybridoma; also called M1E07) VH: EVQLQQSGPELVKPGASVKISCKASGYSFTGYYMHWVKQSPEKSLEWIGEINPSTGGTTYNQKFKAKATLTVDKSSSTAYMQLKSLTSEDSAVYYCARRGGLTGTSFFAYWGQGTLVTVSA VL: DVVMTQTPLSLSVTIGQPASISCKSSQSLLYSNGKTYLNWLQQRPGQAPKHLMYQVSKLDPGIPDRFSGSGSETDFTLKISRVEAEDLGVYYCLQSTYYPLTFGAGTKLELKR in the records?
14.3

Which value of Inhibition of the binding of indicated biotin-Mab to sGPC3 core (%) has been reported for M6B1 (antibody, V domains shown, Mouse monoclonal from hybridoma) VH: EVQLVESGGDLVKPGGSLKLSCAASGFTFSSYAMSWVRQTPEKRLEWVAAINSNGGTTYYPDTMKDRFTISRDNAKNTLYLQMSSLRSEDSALYYCTRHNGGYENYGWFAYWGQGTLVTVSA VL: DIQMTQSPSSLSASLGGKVTITCKASQDINKNIIWYQHKPGKGPRLLIWYTSTLQPGIPSRFSGSGSGRDYSFSISNLEPEDIATYYCLQYDNLPRTFGGGTKLEIK in the records?
13.9

Which value of Inhibition of the binding of indicated biotin-Mab to sGPC3 core (%) has been reported for L9G11 (antibody, V domains shown, Mouse monoclonal from hybridoma) VH: QVQLQQPGAELVKPGASVKLSCKASGYTFTSYWMHWVKQRPGQGLEWIGTIDPSDSETHYNLQFKDTATLTVDKSSSTAYMQLSSLTSEDSAVYYCIRGAFYSSYSYWAWFAYWGQGTLVTVSA VL: DIVLTQSPTSLAVSLGQSVTISCRASESVEYYGTSLMQWYQQKPGQPPKLLIYGASNVESGVPARFSGSGSGTDFSLNIHPVEEDDIAMYFCQQSRKVPYTFGSGTKLEIK in the records?
6

We now examine a further binder.
Which value of Inhibition of the binding of indicated biotin-Mab to sGPC3 core (%) has been reported for M10D2 (antibody, V domains shown, Mouse monoclonal from hybridoma) VH: QVQLQQPGAELVKPGASVKLSCKASGYTFTSYWMHWVKQRPGQGLEWIGEIDPSDSYTYYNQKFRGKATLTVDKSSNTAYMQLSSLTSEDSAVYYCSRSNLGDGHYRFPAFPYWGQGTLVTVSA VL: DIVLTQSPATLSVTPGDRVSLSCRASHSISNFLHWYPQKSHESPRLLIKYASQSISGIPSRFSGNGSGTDFTLSINSVETEDFGMYFCQQSNIWSLTFGAGTKLELK in the records?
7.8
